meta.source: patent US20230039851A1

Assayed target: T1, Human Serum Albumin (human, UniProt P02768 25-609)
T1 construct: ELISA: albumin coated on plates; pull-down: endogenous albumin in normal human serum; also called HSA; Human SA
T1 sequence (P02768 25-609 limits assumed): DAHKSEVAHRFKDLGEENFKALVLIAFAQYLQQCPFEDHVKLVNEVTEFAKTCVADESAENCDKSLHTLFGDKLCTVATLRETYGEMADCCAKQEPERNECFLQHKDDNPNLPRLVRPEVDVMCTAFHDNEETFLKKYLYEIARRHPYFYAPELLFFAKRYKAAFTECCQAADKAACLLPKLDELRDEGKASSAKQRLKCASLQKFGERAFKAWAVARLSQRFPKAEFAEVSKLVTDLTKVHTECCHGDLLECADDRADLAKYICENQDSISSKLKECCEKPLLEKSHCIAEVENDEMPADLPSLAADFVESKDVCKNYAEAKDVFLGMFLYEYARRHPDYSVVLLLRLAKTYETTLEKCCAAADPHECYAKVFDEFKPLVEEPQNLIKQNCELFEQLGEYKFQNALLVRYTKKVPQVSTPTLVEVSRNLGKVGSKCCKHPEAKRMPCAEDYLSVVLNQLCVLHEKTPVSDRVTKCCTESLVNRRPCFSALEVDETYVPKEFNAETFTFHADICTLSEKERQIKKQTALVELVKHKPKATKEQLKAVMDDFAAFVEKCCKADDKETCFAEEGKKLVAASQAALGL
Assay text: ELISA, 667 nM FN3 protein on immobilized human albumin
Could you please report measured Human Albumin (RLU) for the items listed next?
State the value, then name its unit.

Q: Give its Human Albumin (RLU) value. Item: A10V, I85A (designed binder, Variant of B7; not shown: His tag: FN3 domains were purified as His-tagged proteins) MLPAPKNLVVSRVTEDSARLSWTAPDAAFDSFNIAYWEPGIGGEAIWLRVPGSERSYDLTGLKPGTEYKVWIHGVKGGASSPPLAARFTT
Ans: 1000 RLU

Q: Continue with A10V, P39A (designed binder, Variant of B7; not shown: His tag: FN3 domains were purified as His-tagged proteins) MLPAPKNLVVSRVTEDSARLSWTAPDAAFDSFNIAYWEAGIGGEAIWLRVPGSERSYDLTGLKPGTEYKVWIHGVKGGASSPPLIARFTT
Ans: 107000 RLU

Q: Continue with A10V, H73A (designed binder, Variant of B7; not shown: His tag: FN3 domains were purified as His-tagged proteins) MLPAPKNLVVSRVTEDSARLSWTAPDAAFDSFNIAYWEPGIGGEAIWLRVPGSERSYDLTGLKPGTEYKVWIAGVKGGASSPPLIARFTT
Ans: 550 RLU

Q: Continue with A10V, G40A (designed binder, Variant of B7; not shown: His tag: FN3 domains were purified as His-tagged proteins) MLPAPKNLVVSRVTEDSARLSWTAPDAAFDSFNIAYWEPAIGGEAIWLRVPGSERSYDLTGLKPGTEYKVWIHGVKGGASSPPLIARFTT
Ans: 69800 RLU
